- test system: T1, BsGpsB1-68 Tyr25Phe (B. subtilis, UniProt P0CI74 1-68, Tyr25Phe)
- T1 construct: GpsB, Bacillus subtilis, residues 1-68 (N-terminal domain); also called BsGpsB1-68 Y25F; source: E. coli BL21(DE3), purified (Ni-NTA, thrombin removal of the His6-tag, SEC); not shown: His6, N-terminal, cleaved
- T1 sequence (looked up): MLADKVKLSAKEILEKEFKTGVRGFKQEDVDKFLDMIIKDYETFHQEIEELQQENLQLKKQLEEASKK
- test: fluorescence polarisation
- test context: both partners purified
Non-standard residues stand in square brackets, D forms with d. No end group written: not given here. fluorescein = fluorescein fluorescent label on the N-terminus; Nle = CCCC[C@H](N)C(=O)O
experimental readout: Kd

INPUT: Given the binder fluorescein-[Nle]TN[Nle]SRVERRKAQNLYEDQNA [Fluoroescein-BsYpbE1-21] , what is its reported Kd?
OUTPUT: > 500 µM
